Each recorded value in this set is attributed to the supplement of paper PMC8728848.

Target: Neu5Ac(a2-3)Gal(b1-4)[Fuc(a1-3)]GlcNAc
Assay: glycan array binding signal (z-score within array); higher = stronger binding
Conditions: glycan notation: IUPAC condensed, linker removed
The entries come from a sample that favours the strongest signals as a whole.
Each entry below carries its recorded glycan array binding signal (z-score).
Answer with a number only.

binder | result
FBG5 (Homo sapiens), Q8NI29 (protein) MGASVSRGRAARVPAPEPEPEEALDLSQLPPELLLVVLSHVPPRTLLGRCRQVCRGWRALVDGQALWLLILARDHGATGRALLHLARSCQSPARNARPCPLGRFCARRPIGRNLIRNPCGQEGLRKWMVQHGGDGWVVEENRTTVPGAPSQTCFVTSFSWCCKKQVLDLEEEGLWPELLDSGRIEICVSDWWGARHDSGCMYRLLVQLLDANQTVLDKFSAVPDPIPQWNNNACLHVTHVFSNIKMGVRFVSFEHRGQDTQFWAGHYGARVTNSSVIVRVRLS | -0.231
rMpL (Macrolepiota procera) (protein) MSTQVSSGRTYKITNVIAGTVIDLSGEDNKSIIGYPYHSGKNQQWTFNWTGKAWTLRSASSGSYLGIEGTPAGGTRLVAVNDPFEWHIWRDEANENAFRIFVPFTNYNLDLSGYGDTTPGTPVQLWWTWEGLHQTWTIDRP | -0.32

Note: attention shifts to another entry.
# get_value(readout='glycan array binding signal (z-score)', item= TIM-1 (Mus musculus), AAL35774 (protein) MNQIQVFISGLILLLPGAVDSYVEVKGVVGHPVTLPCTYSTYRGITTTCWGRGQCPSSACQNTLIWTNGHRVTYQKSSRYNLKGHISEGDVSLTIENSVESDSGLYCCRVEIPGWFNDQKVTFSLQVKPEIPTRPPTRPTTTRPTATGRPTTISTRSTHVPTSIRVSTSTPPTSTHTWTHKPEPTTFCPHETTAEVTGIPSHTPTDWNGTVTSSGDTWSNHTEAIPPGKPQKNPTKGFYVGICIAALLLLLLVSTVAITRYILMKRKSASLSVVAFRVSKIEALQNAAVVHSRAEDNIYIVEDRP )
-0.451
